- Assayed System: TACE (Homo sapiens)
- Construct: made in house; host or cells: mammalian cells or insect cells
- Sequence (P78536 215-824): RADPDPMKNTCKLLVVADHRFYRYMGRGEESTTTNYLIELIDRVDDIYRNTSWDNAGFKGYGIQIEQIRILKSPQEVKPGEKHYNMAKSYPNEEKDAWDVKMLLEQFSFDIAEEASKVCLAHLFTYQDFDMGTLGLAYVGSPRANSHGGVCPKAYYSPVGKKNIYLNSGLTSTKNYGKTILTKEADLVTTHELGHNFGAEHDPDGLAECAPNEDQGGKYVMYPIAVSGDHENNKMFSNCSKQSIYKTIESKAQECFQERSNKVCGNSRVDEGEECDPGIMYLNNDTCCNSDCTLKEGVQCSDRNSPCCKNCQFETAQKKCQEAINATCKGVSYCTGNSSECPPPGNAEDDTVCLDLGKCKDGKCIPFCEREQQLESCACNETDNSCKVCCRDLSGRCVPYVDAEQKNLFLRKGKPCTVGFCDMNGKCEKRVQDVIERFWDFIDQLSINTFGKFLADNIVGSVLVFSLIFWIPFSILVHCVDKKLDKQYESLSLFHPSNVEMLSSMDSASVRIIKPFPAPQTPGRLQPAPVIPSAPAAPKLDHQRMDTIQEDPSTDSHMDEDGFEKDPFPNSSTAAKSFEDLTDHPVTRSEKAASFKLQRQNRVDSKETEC
- Assay Name: TACE inhibition experiment (in vitro)
- Type: biochemical
Item-by-item account of log10(IC50)
Property Label: log10(IC50) (log10 of the value in nM)

{"Compound": "C=C1CCC(C(CS(=O)(=O)c2ccc(OCc3cc(C)nc(C)c3)cc2)N(O)C=O)CC1 (centres unmarked)", "log10(IC50)": 1.78}
{"Compound": "COCc1cc(COc2ccc(S(=O)(=O)CC(CC3CCC(=NO)CC3)N(O)C=O)cc2)cc(C)n1 (centres unmarked)", "log10(IC50)": 2.30}
{"Compound": "Cc1cc(COc2ccc(S(=O)(=O)CC(N(O)C=O)C3(C)CCC4(CC3)OCCO4)cc2)c2ccccc2n1 (centres unmarked)", "log10(IC50)": 1.48}
{"Compound": "CCC(CC)C(=O)N1CCCC(=CC(CS(=O)(=O)c2ccc(OCc3cc(C)nc4ccccc34)cc2)N(O)C=O)CC1 (centres unmarked)", "log10(IC50)": 0.91}
{"Compound": "O=CN(O)C(C=C1CCC(=NO)CC1)CS(=O)(=O)c1ccc(OCc2ccc3ccccc3n2)cc1 (centres unmarked)", "log10(IC50)": 2.62}
{"Compound": "Cc1cncc(C(CS(=O)(=O)c2ccc(OCc3cc(C)nc4c(F)cccc34)cc2)N(O)C=O)c1 (centres unmarked)", "log10(IC50)": 0.40}
{"Compound": "Cc1cc(Cl)cc(COc2ccc(S(=O)(=O)CC(C=C3CCC(=NO)CC3)N(O)C=O)cc2)c1 (centres unmarked)", "log10(IC50)": 2.11}
{"Compound": "Cc1cc(COc2ccc(S(=O)(=O)CC(C=C3CCCN(CC(C)C)CC3)N(O)C=O)cc2)c2ccccc2n1 (centres unmarked)", "log10(IC50)": 0.91}
{"Compound": "Cc1cc(COc2ccc(S(=O)(=O)CC(C=C3CCN(Cc4ccccc4)CC3)N(O)C=O)cc2)c2ccccc2n1 (centres unmarked)", "log10(IC50)": 0.70}
{"Compound": "CC(=C1CCOCC1)C(CS(=O)(=O)c1ccc(OCc2cc(C)nc3ccccc23)cc1)N(O)C=O (centres unmarked)", "log10(IC50)": 0.74}
{"Compound": "CON=C1CCC(C(CS(=O)(=O)c2ccc(OCc3cc(C)nc4ccccc34)cc2)N(O)C=O)CC1 (centres unmarked)", "log10(IC50)": 1.85}
{"Compound": "Cc1cc(COc2ccc(S(=O)(=O)CC(N(O)C=O)C3(C)CCC(=O)CC3)cc2)c2ccccc2n1 (centres unmarked)", "log10(IC50)": 1.28}
{"Compound": "COc1cc(C)cc(COc2ccc(S(=O)(=O)CC(C=C3CCC(=O)CC3)N(O)C=O)cc2)c1 (centres unmarked)", "log10(IC50)": 1.90}
{"Compound": "Cc1cc(C)cc(COc2ccc(S(=O)(=O)CC(CC3CCC4(CC3)OCCO4)N(O)C=O)cc2)c1 (centres unmarked)", "log10(IC50)": 3.32}
{"Compound": "Cc1cccc(C(CS(=O)(=O)c2ccc(OCc3cc(C)nc4ccccc34)cc2)N(O)C=O)c1 (centres unmarked)", "log10(IC50)": 0.62}
{"Compound": "Cc1cc(COc2ccc(S(=O)(=O)CC(CC3CCN(C(=O)c4ccccc4)CC3)N(O)C=O)cc2)c2ccccc2n1 (centres unmarked)", "log10(IC50)": 1.11}
{"Compound": "COCc1cc(COc2ccc(S(=O)(=O)CC(CC3CCC(=O)CC3)N(O)C=O)cc2)cc(C)n1 (centres unmarked)", "log10(IC50)": 2.46}
{"Compound": "CC(=O)N1CCCC(C(CS(=O)(=O)c2ccc(OCc3cc(C)nc4ccccc34)cc2)N(O)C=O)C1 (centres unmarked)", "log10(IC50)": 1.41}
{"Compound": "CCN1CCC(C(CS(=O)(=O)c2ccc(OCc3cc(C)nc4ccccc34)cc2)N(O)C=O)CC1 (centres unmarked)", "log10(IC50)": 1.52}
{"Compound": "Cc1cc(Cl)cc(COc2ccc(S(=O)(=O)CC(CC3CCC4(CC3)OCCO4)N(O)C=O)cc2)c1 (centres unmarked)", "log10(IC50)": 3.04}
{"Compound": "Cc1cc(COc2ccc(S(=O)(=O)CC(C=C3CCN(C(=O)C(C)(C)C)CC3)N(O)C=O)cc2)c2ccccc2n1 (centres unmarked)", "log10(IC50)": 1.00}
{"Compound": "Cc1cc(COc2ccc(S(=O)(=O)CC(C(F)=C3CCOCC3)N(O)C=O)cc2)c2ccccc2n1 (centres unmarked)", "log10(IC50)": 0.85}
{"Compound": "Cc1cc(COc2ccc(S(=O)(=O)CC(C3CSC(=O)N3C)N(O)C=O)cc2)c2ccccc2n1 (centres unmarked)", "log10(IC50)": 0.49}
{"Compound": "CC(=O)N(O)C(C=C1CCSCC1)CS(=O)(=O)c1ccc(OCc2cc(C)nc3ccccc23)cc1 (centres unmarked)", "log10(IC50)": 2.49}
{"Compound": "Cc1cc(C)cc(COc2ccc(S(=O)(=O)CC(C=C3CCC(=O)CC3)N(O)C=O)cc2)c1 (centres unmarked)", "log10(IC50)": 2.48}
{"Compound": "CCC(CC)C(=O)N1CCC(=CC(CS(=O)(=O)c2ccc(OCc3cc(C)nc4ccccc34)cc2)N(O)C=O)CC1 (centres unmarked)", "log10(IC50)": 0.46}
{"Compound": "Cc1cc(COc2ccc(S(=O)(=O)CC(CC3CCCN(C(=O)OC(C)(C)C)C3)N(O)C=O)cc2)c2ccccc2n1 (centres unmarked)", "log10(IC50)": 1.11}
{"Compound": "Cc1ccc2nc(C)cc(COc3ccc(S(=O)(=O)CC(c4ccc(C)nc4)N(O)C=O)cc3)c2c1 (centres unmarked)", "log10(IC50)": 0.63}
{"Compound": "Cc1cc(COc2ccc(S(=O)(=O)CC(C=C3CCN(C=O)CC3)N(O)C=O)cc2)c2ccccc2n1 (centres unmarked)", "log10(IC50)": 0.49}

----------
Item-by-item account of pIC50
- Assayed System: Human MMP14 (Homo sapiens, UniProt P50281)
pIC50: −log10 of the molar value.

{"Compound": "O=CN(O)C(C=C1CCC(=NO)CC1)CS(=O)(=O)c1ccc(OCc2ccc3ccccc3n2)cc1 (stereo not drawn)", "Assayed System": "Human MMP14 (Homo sapiens, UniProt P50281)", "Lt Gt Eq": "=", "pIC50": 4.15}
{"Compound": "CC[C@H](C)[C@H](NC(=O)[C@H](CC(C)C)[C@H](C(C)C)N(O)C=O)C(=O)Nc1ccccn1 [compound 3, reference compound]", "Assayed System": "Human MMP14 (Homo sapiens, UniProt P50281)", "Lt Gt Eq": "=", "pIC50": 7.15}
{"Compound": "Cc1cc(Cl)cc(COc2ccc(S(=O)(=O)CC(C3CCC4(CC3)OCCO4)N(O)C=O)cc2)c1 (stereo not drawn)", "Assayed System": "Human MMP14 (Homo sapiens, UniProt P50281)", "Lt Gt Eq": "=", "pIC50": 5.15}
{"Compound": "C[C@@H]1O[C@@H](CO)CN(S(=O)(=O)c2ccc(OCc3ccc(F)cc3)cc2)[C@H]1C(=O)NO [compound 2, reference compound]", "Assayed System": "Human MMP14 (Homo sapiens, UniProt P50281)", "Lt Gt Eq": "=", "pIC50": 7.00}
{"Compound": "C=C1CCC(C(CS(=O)(=O)c2ccc(OCc3cc(C)cc(OC)c3)cc2)N(O)C=O)CC1 (stereo not drawn)", "Assayed System": "Human MMP14 (Homo sapiens, UniProt P50281)", "Lt Gt Eq": "=", "pIC50": 4.40}
{"Compound": "Cc1ccc2nc(C)cc(COc3ccc(S(=O)(=O)CC(C=C4CCOCC4)N(O)C=O)cc3)c2c1 (stereo not drawn)", "Assayed System": "Human MMP14 (Homo sapiens, UniProt P50281)", "Lt Gt Eq": "=", "pIC50": 4.22}
{"Compound": "Cc1cc(COc2ccc(S(=O)(=O)CC(C(Cl)=C3CCOCC3)N(O)C=O)cc2)c2ccccc2n1 (stereo not drawn)", "Assayed System": "Human MMP14 (Homo sapiens, UniProt P50281)", "Lt Gt Eq": "<", "pIC50": 4.00}
{"Compound": "Cc1cc(Cl)cc(COc2ccc(S(=O)(=O)CC(C=C3CCC4(CC3)OCCO4)N(O)C=O)cc2)c1 (stereo not drawn)", "Assayed System": "Human MMP14 (Homo sapiens, UniProt P50281)", "Lt Gt Eq": "=", "pIC50": 4.48}
{"Compound": "COCc1cc(COc2ccc(S(=O)(=O)CC(CC3CCC(=NO)CC3)N(O)C=O)cc2)cc(C)n1 (stereo not drawn)", "Assayed System": "Human MMP14 (Homo sapiens, UniProt P50281)", "Lt Gt Eq": "<", "pIC50": 4.00}
{"Compound": "CON=C1CCC(C(CS(=O)(=O)c2ccc(OCc3cc(C)nc4ccccc34)cc2)N(O)C=O)CC1 (stereo not drawn)", "Assayed System": "Human MMP14 (Homo sapiens, UniProt P50281)", "Lt Gt Eq": "=", "pIC50": 4.46}
{"Compound": "Cc1cc(COc2ccc(S(=O)(=O)CC(CC3CCN(S(C)(=O)=O)CC3)N(O)C=O)cc2)c2ccccc2n1 (stereo not drawn)", "Assayed System": "Human MMP14 (Homo sapiens, UniProt P50281)", "Lt Gt Eq": "=", "pIC50": 4.04}
{"Compound": "Cc1cc(COc2ccc(S(=O)(=O)CC(C=C3CCN(C(=O)OC(C)(C)C)CC3)N(O)C=O)cc2)c2ccccc2n1 (stereo not drawn)", "Assayed System": "Human MMP14 (Homo sapiens, UniProt P50281)", "Lt Gt Eq": "=", "pIC50": 4.70}
{"Compound": "CCC(CC)C(=O)N1CCC(CC(CS(=O)(=O)c2ccc(OCc3cc(C)nc4ccccc34)cc2)N(O)C=O)CC1 (stereo not drawn)", "Assayed System": "Human MMP14 (Homo sapiens, UniProt P50281)", "Lt Gt Eq": "=", "pIC50": 4.40}
{"Compound": "Cc1cc(COc2ccc(S(=O)(=O)CC(c3cccnc3C)N(O)C=O)cc2)c2ccccc2n1 (stereo not drawn)", "Assayed System": "Human MMP14 (Homo sapiens, UniProt P50281)", "Lt Gt Eq": "=", "pIC50": 4.15}
{"Compound": "Cc1cc(COc2ccc(S(=O)(=O)CC(N(O)C=O)C3(C)CCC(=O)CC3)cc2)c2ccccc2n1 (stereo not drawn)", "Assayed System": "Human MMP14 (Homo sapiens, UniProt P50281)", "Lt Gt Eq": "<", "pIC50": 4.00}
